IC50 (read off the curve): recorded values
- TEST SYSTEM: HLA-DQ2.5/33mer gliadin peptide complex on Ba/F3 cells (human; wheat)
- ASSAY NOTES: cell-based or functional assay

BINDER | IC50 (read off the curve)
DQN0225dd (antibody, human IgG1, kappa, V domains shown, also called DQN0225Hd; DQN0225Ld) VH: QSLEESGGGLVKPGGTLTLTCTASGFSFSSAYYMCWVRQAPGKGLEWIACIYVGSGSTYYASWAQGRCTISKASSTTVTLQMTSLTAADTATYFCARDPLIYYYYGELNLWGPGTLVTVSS VL: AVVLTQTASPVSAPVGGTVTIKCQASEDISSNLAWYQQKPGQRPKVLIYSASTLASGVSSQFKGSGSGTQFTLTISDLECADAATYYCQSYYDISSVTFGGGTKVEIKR | ~0.3 µg/mL
DQN0344xx (antibody, human IgG1, kappa, V domains shown, also called DQN0344Hx; DQN0344Lx) VH: QSLEESGGGLVKPGGTLTLTCTASGFSFSSSYWMCWVRQAPGKGLEWVACVYGGSDTTYYASWTKGRFTISKGSSTTVALQVTSLTAADTATYFCARDPLNYYYYGELNLWGPGTLVTVSS VL: AVVLTQTASPVSAAVGGTVTIRCQATENIYSGLAWYQQKPGQPPKVLIYYVSTLASGVPSRFKGSGSGTEYTLTISGVQCDDAATYYCQTYHDISNVTFGGGTKVEIKR | ~0.3 µg/mL
DQN0370hh (antibody, human IgG1, kappa, V domains shown, also called DQN0370Lh) VH: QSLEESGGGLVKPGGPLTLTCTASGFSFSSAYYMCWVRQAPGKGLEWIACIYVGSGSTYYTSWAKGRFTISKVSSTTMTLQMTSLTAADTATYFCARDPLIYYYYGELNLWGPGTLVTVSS VL: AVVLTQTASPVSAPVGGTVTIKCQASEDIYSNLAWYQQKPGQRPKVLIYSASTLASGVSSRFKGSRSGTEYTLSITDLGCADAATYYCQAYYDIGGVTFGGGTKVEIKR | ~0.3 µg/mL
DQN0324hh (antibody, human IgG1, kappa, V domains shown, also called DQN0324Lh) VH: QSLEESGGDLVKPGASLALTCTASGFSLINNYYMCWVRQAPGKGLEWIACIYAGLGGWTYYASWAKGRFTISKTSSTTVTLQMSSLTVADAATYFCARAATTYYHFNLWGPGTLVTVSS VL: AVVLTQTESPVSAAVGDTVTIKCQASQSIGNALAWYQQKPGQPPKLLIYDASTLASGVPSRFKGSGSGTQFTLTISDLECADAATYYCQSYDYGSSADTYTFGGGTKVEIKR | ~0.2 µg/mL
DQN0271hh (antibody, human IgG1, kappa, V domains shown, also called DQN0271Lh) VH: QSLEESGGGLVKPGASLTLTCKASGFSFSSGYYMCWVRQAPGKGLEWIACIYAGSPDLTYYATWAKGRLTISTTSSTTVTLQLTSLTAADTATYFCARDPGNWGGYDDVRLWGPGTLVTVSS VL: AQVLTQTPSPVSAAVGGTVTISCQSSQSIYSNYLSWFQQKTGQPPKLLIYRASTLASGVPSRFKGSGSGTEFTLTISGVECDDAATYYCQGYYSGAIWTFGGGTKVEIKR | ~0.3 µg/mL

Source: patent US20230118024A1
